Provide the reported Ki of each item.
Report as: number unit

Incoming: Item CCSC(=O)c1c(CC)nc(-c2ccccc2)c(C(=O)O)c1CC with hA2AAR (Homo sapiens) - Ki?
Outgoing: 37.1 µM

Incoming: Item CCSC(=O)c1c(CC)nc(-c2ccccc2)c(C(=O)OCCF)c1CC with hA2AAR (Homo sapiens) - Ki?
Outgoing: 1.72 µM

* * *

tested-system: hA3AR (Homo sapiens, UniProt P0DMS8)
Sequence (P0DMS8 1-318): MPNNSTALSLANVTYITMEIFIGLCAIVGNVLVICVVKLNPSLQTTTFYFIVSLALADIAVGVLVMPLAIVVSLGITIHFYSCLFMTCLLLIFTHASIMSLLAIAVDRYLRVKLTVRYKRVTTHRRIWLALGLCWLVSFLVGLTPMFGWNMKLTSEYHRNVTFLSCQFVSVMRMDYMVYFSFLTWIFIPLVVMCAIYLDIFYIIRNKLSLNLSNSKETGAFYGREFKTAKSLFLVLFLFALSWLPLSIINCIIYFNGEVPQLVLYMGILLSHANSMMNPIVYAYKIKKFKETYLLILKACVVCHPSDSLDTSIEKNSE
assay-procedure: Competitive binding assay, hA3AR membranes, [125I]AB-MECA
recorded-conditions: read-out: Ki hA3AR; [125I]AB-MECA 0.4 nM; DMSO ≤1%; n = 3–5 in triplicate
quantity: Ki (nM)
The response must be a number in nM with no trailing unit.

Incoming: Given the entry CCSC(=O)c1c(CC)nc(-c2ccccc2)c(C(=O)O)c1CC , report its measured Ki.
Outgoing: 2580
